- target_entity: Delta-type opioid receptor (Homo sapiens, UniProt P41143)
- Sequence (P41143 whole entry): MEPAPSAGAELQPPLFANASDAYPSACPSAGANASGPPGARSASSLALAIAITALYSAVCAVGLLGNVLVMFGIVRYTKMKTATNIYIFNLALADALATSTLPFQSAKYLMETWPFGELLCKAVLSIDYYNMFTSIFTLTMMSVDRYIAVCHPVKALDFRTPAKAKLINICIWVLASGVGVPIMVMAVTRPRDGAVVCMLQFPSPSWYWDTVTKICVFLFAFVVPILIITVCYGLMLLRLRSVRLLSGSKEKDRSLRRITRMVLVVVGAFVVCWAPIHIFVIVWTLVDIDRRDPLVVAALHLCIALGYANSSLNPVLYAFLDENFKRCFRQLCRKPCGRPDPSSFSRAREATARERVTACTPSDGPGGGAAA
- measurement_protocol: Displacement of [3H]diprenorphine from human cloned delta opioid receptor
pKi values for the compounds below.
In simple prose, pKi is minus the logarithm base ten of a concentration in moles per litre.

smiles_notation: CCCCCCN1C[C@H](C)[C@](C)(c2cccc(O)c2)C[C@H]1CCC
endpoint: pKi
observed_result: 6.47
--
smiles_notation: C[C@H]1CN(CCc2ccccc2)[C@H](Cc2ccccc2)C[C@@]1(C)c1cccc(O)c1
endpoint: pKi
observed_result: 6.10
--
smiles_notation: CCC[C@@H]1C[C@@](C)(c2cccc(O)c2)[C@@H](C)CN1CCc1ccccc1
endpoint: pKi
observed_result: 6.92

Task item: Recorded pKi of C[C@H]1CN(CCc2ccccc2)[C@H](c2ccccc2)C[C@@]1(C)c1cccc(O)c1 , please.
Reply: 6.59

Task item: Recorded pKi of C[C@@H]1C[C@@](C)(c2cccc(O)c2)[C@@H](C)CN1CCc1ccccc1 , please.
Reply: 7.19

Task item: Recorded pKi of CC[C@@H]1C[C@@](C)(c2cccc(O)c2)[C@@H](C)CN1CCc1ccccc1 , please.
Reply: 6.17

Task item: Recorded pKi of CCC[C@@H]1C[C@@](C)(c2cccc(O)c2)[C@@H](C)CN1Cc1ccccc1 , please.
Reply: 6.06

---

- target_entity: Kappa-type opioid receptor (Homo sapiens, UniProt P41145)
- Sequence (P41145 whole entry): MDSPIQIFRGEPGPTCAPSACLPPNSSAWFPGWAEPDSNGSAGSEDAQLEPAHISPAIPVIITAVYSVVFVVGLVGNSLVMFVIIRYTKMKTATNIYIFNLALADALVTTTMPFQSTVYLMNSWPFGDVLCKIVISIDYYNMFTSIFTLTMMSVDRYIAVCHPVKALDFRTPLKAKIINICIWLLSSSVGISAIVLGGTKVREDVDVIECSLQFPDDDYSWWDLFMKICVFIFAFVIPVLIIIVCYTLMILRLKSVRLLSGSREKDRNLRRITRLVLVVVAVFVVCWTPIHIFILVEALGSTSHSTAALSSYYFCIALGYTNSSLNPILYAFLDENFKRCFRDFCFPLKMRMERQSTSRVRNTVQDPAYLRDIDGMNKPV
Strictly below 400 nM in Ki: TRUE. Otherwise: FALSE.

smiles_notation: C[C@@H]1C[C@@](C)(c2cccc(O)c2)[C@@H](C)CN1CCc1ccccc1
assigned_category: TRUE
//
smiles_notation: C[C@H]1CN(CCc2ccccc2)[C@H](CCCc2ccccc2)C[C@@]1(C)c1cccc(O)c1
assigned_category: TRUE
//
smiles_notation: C[C@H]1CN(CCc2ccccc2)[C@H](Cc2ccccc2)C[C@@]1(C)c1cccc(O)c1
assigned_category: FALSE
//
smiles_notation: CCC[C@@H]1C[C@@](C)(c2cccc(O)c2)[C@@H](C)CN1CCCc1ccccc1
assigned_category: TRUE
//
smiles_notation: CCC[C@@H]1C[C@@](C)(c2cccc(O)c2)[C@@H](C)CN1Cc1ccccc1
assigned_category: TRUE
//
smiles_notation: CCC[C@@H]1C[C@@](C)(c2cccc(O)c2)[C@@H](C)CN1
assigned_category: FALSE
//
smiles_notation: C[C@H]1CN(CCc2ccccc2)[C@H](c2ccccc2)C[C@@]1(C)c1cccc(O)c1
assigned_category: TRUE
//
smiles_notation: CC(C)[C@@H]1C[C@@](C)(c2cccc(O)c2)[C@@H](C)CN1CCc1ccccc1
assigned_category: FALSE

Turning to the following compound.
Task item: A record lists CCCCCCN1C[C@H](C)[C@](C)(c2cccc(O)c2)C[C@H]1CCC . Is its Ki below 400 nM?
Reply: TRUE

---

Parameter 'readout' = pKi; parameter 'system' = Mu-type opioid receptor (Homo sapiens).
Sequence (P35372 whole entry): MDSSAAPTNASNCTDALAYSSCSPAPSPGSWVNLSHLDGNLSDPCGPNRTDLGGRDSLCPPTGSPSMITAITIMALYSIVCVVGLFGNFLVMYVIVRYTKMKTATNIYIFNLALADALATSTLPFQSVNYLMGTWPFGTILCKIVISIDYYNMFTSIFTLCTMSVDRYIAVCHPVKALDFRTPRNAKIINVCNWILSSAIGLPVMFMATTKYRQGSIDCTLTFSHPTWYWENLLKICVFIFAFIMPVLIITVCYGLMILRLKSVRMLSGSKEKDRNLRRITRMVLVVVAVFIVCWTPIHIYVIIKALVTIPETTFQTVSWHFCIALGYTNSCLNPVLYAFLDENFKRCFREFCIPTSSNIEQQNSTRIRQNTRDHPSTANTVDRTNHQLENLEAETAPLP
In simple prose, pKi is minus the logarithm base ten of a concentration in moles per litre.

Examples with their reported pKi follow.
smiles_notation: CCC[C@@H]1C[C@@](C)(c2cccc(O)c2)[C@@H](C)CN1C
pKi: 6.28
//
smiles_notation: C[C@H]1CN(CCc2ccccc2)[C@H](c2ccccc2)C[C@@]1(C)c1cccc(O)c1
pKi: 6.55
//
smiles_notation: CCC[C@@H]1C[C@@](C)(c2cccc(O)c2)[C@@H](C)CN1CCCc1ccccc1
pKi: 7.72
//
smiles_notation: CCC[C@@H]1C[C@@](C)(c2cccc(O)c2)[C@@H](C)CN1CCc1ccccc1
pKi: 7.70

We now examine a further molecule.
Task item: Give the reported pKi for CC(=O)NCC[C@@H]1C[C@@](C)(c2cccc(O)c2)[C@@H](C)CN1CCc1ccccc1 (system: Mu-type opioid receptor (Homo sapiens)).
Reply: 6.72
